Reported protein stability index values are given for each entry in this list.
B1: LCOR (parent)
chain: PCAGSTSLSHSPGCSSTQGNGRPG

Variants of: B1
assayOverview: protein stability index of a GFP-peptide fusion (GPS, HEK-293T) (PSI 1-6); higher = more stable;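 note: lentivirally expressed fusions sorted by FACS into six bins by GFP to DsRed ratio, PSI derived from sequencing read proportions per bin multiplied by bin number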
experimentalSetup: c terminus: a fixed tail appended
assayReadout: protein stability index

[
  {
    "seqString": "PCAASTSLSHSPGCSSTQGNGRPG [G4A]",
    "assayReadout": "protein stability index",
    "readoutValue": 2.7
  },
  {
    "seqString": "PCAGSTSLSHNPGCSSTQGNGRPG [S11N]",
    "assayReadout": "protein stability index",
    "readoutValue": 2.75
  },
  {
    "seqString": "PCAGSTSLSHSMGCSSTQGNGRPG [P12M]",
    "assayReadout": "protein stability index",
    "readoutValue": 3.12
  },
  {
    "seqString": "PCAPSTSLSHSPGCSSTQGNGRPG [G4P]",
    "assayReadout": "protein stability index",
    "readoutValue": 4.17
  },
  {
    "seqString": "PFAGSTSLSHSPGCSSTQGNGRPG [C2F]",
    "assayReadout": "protein stability index",
    "readoutValue": 3.99
  },
  {
    "seqString": "PCAGSTSLSHSPGCQSTQGNGRPG [S15Q]",
    "assayReadout": "protein stability index",
    "readoutValue": 2.79
  },
  {
    "seqString": "PIAGSTSLSHSPGCSSTQGNGRPG [C2I]",
    "assayReadout": "protein stability index",
    "readoutValue": 2.92
  },
  {
    "seqString": "PCAGSTSLSHSPGCSSVQGNGRPG [T17V]",
    "assayReadout": "protein stability index",
    "readoutValue": 1.75
  },
  {
    "seqString": "PCAGSFSLSHSPGCSSTQGNGRPG [T6F]",
    "assayReadout": "protein stability index",
    "readoutValue": 2.91
  },
  {
    "seqString": "PCAGSTSLSHSPGCSSTIGNGRPG [Q18I]",
    "assayReadout": "protein stability index",
    "readoutValue": 2.48
  },
  {
    "seqString": "PCAGSTSLSHSPGCSSTQGNKRPG [G21K]",
    "assayReadout": "protein stability index",
    "readoutValue": 3.79
  },
  {
    "seqString": "PCAGSTSLSHSPGCSSTQLNGRPG [G19L]",
    "assayReadout": "protein stability index",
    "readoutValue": 2.91
  },
  {
    "seqString": "PCAGSTSLSHSPGCSSTQGHGRPG [N20H]",
    "assayReadout": "protein stability index",
    "readoutValue": 2.79
  },
  {
    "seqString": "PCAGSTSLSHSPGCSSTQGPGRPG [N20P]",
    "assayReadout": "protein stability index",
    "readoutValue": 2.51
  },
  {
    "seqString": "PCAMSTSLSHSPGCSSTQGNGRPG [G4M]",
    "assayReadout": "protein stability index",
    "readoutValue": 2.92
  },
  {
    "seqString": "DCAGSTSLSHSPGCSSTQGNGRPG [P1D]",
    "assayReadout": "protein stability index",
    "readoutValue": 4.08
  },
  {
    "seqString": "PCAGSTSLSLSPGCSSTQGNGRPG [H10L]",
    "assayReadout": "protein stability index",
    "readoutValue": 4.39
  },
  {
    "seqString": "CCAGSTSLSHSPGCSSTQGNGRPG [P1C]",
    "assayReadout": "protein stability index",
    "readoutValue": 4.16
  },
  {
    "seqString": "PCQGSTSLSHSPGCSSTQGNGRPG [A3Q]",
    "assayReadout": "protein stability index",
    "readoutValue": 4.08
  },
  {
    "seqString": "PCAGSTSLSHSPGCHSTQGNGRPG [S15H]",
    "assayReadout": "protein stability index",
    "readoutValue": 2.4
  },
  {
    "seqString": "PCAGPTSLSHSPGCSSTQGNGRPG [S5P]",
    "assayReadout": "protein stability index",
    "readoutValue": 2.15
  },
  {
    "seqString": "PCAGSTSLSHSPGCSSTQPNGRPG [G19P]",
    "assayReadout": "protein stability index",
    "readoutValue": 3.31
  }
]
